Values from the supplement of paper PMC10065799

- Test system: Fer (mouse);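 note: frequency after pTyr selection over input frequency; kinase dosed for 20-30% of maximal phosphorylation in three min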
- method: phosphorylation enrichment, bacterial display (enrichment ratio); higher = better substrate or ligand; peptides without Tyr show the background
readout type: phosphorylation enrichment
Please respond with just the number, no unit label.

**Query** Consider the sequence ETDSEYVKLSK [C7orf57_Y70_A74S] and give its measured phosphorylation enrichment.
**Result** 0.499

**Query** Consider the sequence QHVPDYRQNVY [PCDHGA1_Y890] and give its measured phosphorylation enrichment.
**Result** 0.517

**Query** Consider the sequence NTQRPHFKGGG [TYROBP_Y111_Y111H_YF] and give its measured phosphorylation enrichment.
**Result** 0.293

**Query** Consider the sequence YEEDSYSHVMA [FDPS_Y388_I391V] and give its measured phosphorylation enrichment.
**Result** 1.64

**Query** Consider the sequence RRFVFYFSFLL [PTEN_Y177_YF] and give its measured phosphorylation enrichment.
**Result** 0.829

**Query** Consider the sequence DAASNYARGHY [TUBA3E_Y103] and give its measured phosphorylation enrichment.
**Result** 0.342

**Query** Consider the sequence KVALPYKPFFF [POLE_Y100_YF] and give its measured phosphorylation enrichment.
**Result** 0.455

----------
- Test system: Fer (mouse);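 note: 11-residue human phosphosite peptides and single-mutation variants displayed on the E. coli surface, counted by deep sequencing, each peptide's frequency after selection divided by its frequency in the unselected input library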;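 note: frequency after pTyr selection over input frequency; kinase dosed for 20-30% of maximal phosphorylation in three min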
- method: phosphorylation enrichment, bacterial display (enrichment ratio); higher = better substrate or ligand; peptides without Tyr show the background
Rule: phosphorylation enrichment under 0.5 gives Condition not met, otherwise Condition met.

**Query** Does the sequence GQKVAYGGTGD [ALDH3A1_Y305] have recorded phosphorylation enrichment that is 0.5 or more?
**Result** Condition not met

**Query** Does the sequence GRPMDYHVSIT [OTOF_Y254_Q255H] have recorded phosphorylation enrichment that is 0.5 or more?
**Result** Condition met

**Query** Does the sequence KTVQDYLKKFF [MMP8_Y36_E38K_YF] have recorded phosphorylation enrichment that is 0.5 or more?
**Result** Condition met

**Query** Does the sequence RDVEQYVNNVN [PCDH19_Y1097_L1094V] have recorded phosphorylation enrichment that is 0.5 or more?
**Result** Condition not met

**Query** Does the sequence HLLRIYYDITD [MMP27_Y307_W304L] have recorded phosphorylation enrichment that is 0.5 or more?
**Result** Condition met

**Query** Does the sequence AAARPYHIQKW [ACSBG1_Y677] have recorded phosphorylation enrichment that is 0.5 or more?
**Result** Condition not met

**Query** Does the sequence TVLWQYTGTRP [UGT1A1_Y337_R336Q] have recorded phosphorylation enrichment that is 0.5 or more?
**Result** Condition not met

**Query** Does the sequence YTTIHYNYMCN [TP53_Y234_C229Y] have recorded phosphorylation enrichment that is 0.5 or more?
**Result** Condition met

**Query** Does the sequence ASTHVYQIMNH [ITK_Y588] have recorded phosphorylation enrichment that is 0.5 or more?
**Result** Condition met

**Query** Does the sequence SDVDLYQVRTA [PSMD9_Y70] have recorded phosphorylation enrichment that is 0.5 or more?
**Result** Condition met

**Query** Does the sequence DFLSSYSAVNE [OAT_Y85_Q90E] have recorded phosphorylation enrichment that is 0.5 or more?
**Result** Condition met

**Query** Does the sequence SVTFTYSPALN [TP53_Y126_C124Y_YF] have recorded phosphorylation enrichment that is 0.5 or more?
**Result** Condition not met
